Tested on: SK-MEL-28 melanoma
Assay: NCI tumour cell line growth inhibition, 48 h; in the data active means GI50 below about 0.43 µM; inactive means the rest
// one of true (active), false (inactive), no free text

{"columns": ["compound", "class name"],
 "data": [
  ["CCC[CH2][Sn]([CH2]CCC)([CH2]CCC)[O]c1ccc(Cl)cc1Cl", "true"]
]}

## Input What did this assay record as the result for CCC[CH2][Sn]1([CH2]CCC)[O]CC(Cc2ccccc2)[O]1 (configuration not stated) ?
## Output false

## Input What did this assay record as the result for CN[C@H]1C=C[C@@H]2/C=C(C)/C=C/[C@@H](C)[C@H]([C@H](C)[C@H](O)[C@@H](C)NC(C)=O)OC(=O)/C=C/C=C(C)\C=C\[C@]2(C)C1 ?
## Output true

## Input What did this assay record as the result for COc1cc(C#Cc2ccc(=O)oc2C#Cc2ccccc2)cc(OC)c1OC ?
## Output false

## Input What did this assay record as the result for COc1ccc(C(=O)/C=C/c2ccc(C)cc2)cc1OC ?
## Output false

## Input What did this assay record as the result for COc1ccc(S(=O)(=O)N2CC(C)(C)CN(S(=O)(=O)c3ccc(OC)cc3)C2C(=O)NO)cc1 ?
## Output false

## Input What did this assay record as the result for O=c1c(Oc2ccc(F)cc2F)cc2cnc(NC3CCOCC3)nc2n1CCCO ?
## Output false

----------
Tested on: MOLT-4 leukemia
Assay: NCI tumour cell line growth inhibition, 48 h
recorded metric: TGI

// known answers, use as guide
{"columns": ["molecule", "TGI"],
 "data": [
  ["CCCCC(=O)NS(=NC(=O)c1ccccc1)C(Cl)(Cl)Cl (centres undefined)", "> 100 µM"],
  ["O=C(O)c1cc2ccccc2c(N=Nc2ccc(S(=O)(=O)Nc3nccs3)cc2)c1O", "> 100 µM"]
]}

## Input Supply reported TGI belonging to this molecule: CC(=O)[CH-]C(C)=O.CC(=O)[CH-]C(C)=O.[CH2-]CCC.[CH2-]CCC.[Sn+4]
## Output > 100 µM

## Input Supply reported TGI belonging to this molecule: CC1=Nc2nc(Cl)cn2C(=O)C1(Cl)Cl
## Output > 10 µM
